tested on: 422866-222-R5-J1-PDC complex spheroids viability; assay: Anticancer human tumor 422866-222-R5-J1-PDC patient-derived pancreatic adenocarcinoma cell line growth inhibition [RAS]; conditions: second compound 0.03 µM; first compound 1 µM; active compounds read low
viability, T/C values by entry
Express it in %; write the number only.

# COMPOUND, EXPERIMENTAL SYSTEM, U, viability, T/C
data = [
    ("O=C(c1ccc(F)c(F)c1Nc1ccc(I)cc1F)N1CC(O)([C@@H]2CCCCN2)C1 + CCn1c(-c2cc(N3CCN(C)CC3)cnc2C(C)OC)c2c3cc(ccc31)-c1csc(n1)CC(NC(=O)C1CC1C)C(=O)N1CCCC(N1)C(=O)OCC(C)(C)C2", "422866-222-R5-J1-PDC complex spheroids viability", "%", 14.9),
]

Given the compound Cc1nc(N2CCC3(CC2)COC(C)C3N)c(CO)nc1Sc1ccnc(N)c1Cl (configuration not stated) + CCn1c(-c2cc(N3CCN(C)CC3)cnc2C(C)OC)c2c3cc(ccc31)-c1csc(n1)CC(NC(=O)C1CC1C)C(=O)N1CCCC(N1)C(=O)OCC(C)(C)C2 , what is its reported viability, T/C?
17.5

====

tested on: 422866-222-R5-J1-PDC complex spheroids viability; experiment: Anticancer human tumor 422866-222-R5-J1-PDC cell line growth inhibition [RAS]; conditions: second compound 0.3 µM; first compound 1 µM; active = viability on the fitted dose curve at most 10% of control; inactive = the rest;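 further: spheroids exposed to compounds for 7 days; 100% = DMSO vehicle control viability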
# valid calls are label 1 (active), label 0 (inactive); nothing else

# MOLECULE, LABEL
measured = [
    ("Cc1nc(N2CCC3(CC2)COC(C)C3N)c(CO)nc1Sc1ccnc(N)c1Cl (centres undefined) + CCn1c(-c2cccnc2C(C)OC)c2c3cc(ccc31)N1CCOC(CC(NC(=O)C(C(C)C)N(C)C(=O)C3(F)CCN(C(=O)C#CC(C)(C)N(C)C)CC3)C(=O)N3CCCC(N3)C(=O)OCC(C)(C)C2)C1", "label 0"),
]

Field: outcome | Entry: C=CC(=O)N1CCN(c2nc(OCC3CCCN3C)nc3c(F)c(-c4nc(N)cc(C)c4C(F)(F)F)c(Cl)cc23)C(C)C1 (centres undefined) + CCn1c(-c2cccnc2C(C)OC)c2c3cc(ccc31)N1CCOC(CC(NC(=O)C(C(C)C)N(C)C(=O)C3(F)CCN(C(=O)C#CC(C)(C)N(C)C)CC3)C(=O)N3CCCC(N3)C(=O)OCC(C)(C)C2)C1
label 0

Field: outcome | Entry: CC(C)NCC(C(=O)N1CCN(c2ncnc3c2C(C)CC3O)CC1)c1ccc(Cl)cc1 (centres undefined) + CCn1c(-c2cc(N3CCN(C)CC3)cnc2C(C)OC)c2c3cc(ccc31)-c1csc(n1)CC(NC(=O)C1CC1C)C(=O)N1CCCC(N1)C(=O)OCC(C)(C)C2
label 0

Field: outcome | Entry: CC(Nc1ccc2c(c1)OCCn1cc(N3C(=O)OCC3C(F)F)nc1-2)C(N)=O (centres undefined) + CCn1c(-c2cc(N3CCN(C)CC3)cnc2C(C)OC)c2c3cc(ccc31)-c1csc(n1)CC(NC(=O)C1CC1C)C(=O)N1CCCC(N1)C(=O)OCC(C)(C)C2
label 1

====

test system: 422866-222-R5-J1-PDC complex spheroids viability; assay: Anticancer human tumor 422866-222-R5-J1-PDC cell line growth inhibition [RAS]; conditions: second compound 0.003 µM; first compound 0.01 µM; active compounds read low;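 further: spheroids exposed to compounds for 7 days; 100% = DMSO vehicle control viability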
ENDPOINT LABEL: viability, T/C (%)
Express it in %; write the number only.

Previously resolved entries follow.
# MOLECULE, viability, T/C [%]
measured = [
    ("CC(C)n1nc(-c2ccc3oc(N)nc3c2)c2c(N)ncnc21 + CCn1c(-c2cc(N3CCN(C)CC3)cnc2C(C)OC)c2c3cc(ccc31)-c1csc(n1)CC(NC(=O)C1CC1C)C(=O)N1CCCC(N1)C(=O)OCC(C)(C)C2", 17),
    ("C=CC(=O)Nc1cc(Nc2nccc(-c3cn(C)c4ccccc34)n2)c(OC)cc1N(C)CCN(C)C + CCn1c(-c2cc(N3CCN(C)CC3)cnc2C(C)OC)c2c3cc(ccc31)-c1csc(n1)CC(NC(=O)C1CC1C)C(=O)N1CCCC(N1)C(=O)OCC(C)(C)C2", 20.3),
    ("Nc1ccn(C2OC(CO)C(O)C2(F)F)c(=O)n1 (centres undefined) + CCn1c(-c2cccnc2C(C)OC)c2c3cc(ccc31)N1CCOC(CC(NC(=O)C(C(C)C)N(C)C(=O)C3(F)CCN(C(=O)C#CC(C)(C)N(C)C)CC3)C(=O)N3CCCC(N3)C(=O)OCC(C)(C)C2)C1", 20.6),
]

// next item, viability, T/C requested
Given the molecule O=C(c1ccc(F)c(F)c1Nc1ccc(I)cc1F)N1CC(O)([C@@H]2CCCCN2)C1 + CCn1c(-c2cc(N3CCN(C)CC3)cnc2C(C)OC)c2c3cc(ccc31)-c1csc(n1)CC(NC(=O)C1CC1C)C(=O)N1CCCC(N1)C(=O)OCC(C)(C)C2 , what is its reported viability, T/C?
19.1
